assay target: REV-ERBα (Homo sapiens, UniProt P20393)
Sequence (P20393 whole entry): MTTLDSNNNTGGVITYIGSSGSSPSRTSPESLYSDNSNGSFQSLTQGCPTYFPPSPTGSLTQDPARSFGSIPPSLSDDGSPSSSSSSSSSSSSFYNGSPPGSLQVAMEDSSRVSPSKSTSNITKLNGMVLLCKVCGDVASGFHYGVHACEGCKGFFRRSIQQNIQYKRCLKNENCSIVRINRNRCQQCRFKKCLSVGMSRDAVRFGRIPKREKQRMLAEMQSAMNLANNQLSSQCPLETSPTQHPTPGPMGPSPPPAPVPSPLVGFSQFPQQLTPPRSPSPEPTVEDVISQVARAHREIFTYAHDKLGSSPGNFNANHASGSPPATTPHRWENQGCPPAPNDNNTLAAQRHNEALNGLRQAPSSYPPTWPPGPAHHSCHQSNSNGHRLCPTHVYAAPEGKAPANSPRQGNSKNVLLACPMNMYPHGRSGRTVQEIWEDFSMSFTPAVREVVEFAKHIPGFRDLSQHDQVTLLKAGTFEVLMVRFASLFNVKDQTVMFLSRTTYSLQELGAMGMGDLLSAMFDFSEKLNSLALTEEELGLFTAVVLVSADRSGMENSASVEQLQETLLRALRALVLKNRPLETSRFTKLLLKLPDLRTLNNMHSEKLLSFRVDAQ
test details: Bmal1-luciferase / REV-ERBα cotransfection reporter assay in HEK293 cells
measurement label: pIC50
Numbers only, as −log10 of the molar value.

Give pIC50 (REV-ERBα (Homo sapiens, UniProt P20393)) of the following compound: CC(C)(C)OC(=O)CN(Cc1ccc(Cl)cc1)Cc1ccc([N+](=O)[O-])s1
5.64
